# SYSTEM: Diphosphomevalonate decarboxylase (Streptococcus pneumoniae serotype 2 (strain D39 / NCTC 7466), UniProt A0A0H2ZN59)
# ASSAY PROTOCOL: diphosphomevalonate decarboxylase inhibition dose curves – biochemical, PK/LDH-coupled NADH fluorescence, hexokinase coupling counter-screen, dose response (AID 550)
So I've got a bunch of compounds here, and I need their pIC50 values.
Lab note: report pIC50 as minus log10 of the concentration in molar units, number only.

Task: Need pIC50 of O=C(Nc1ccc(F)cc1)N(CCCN1CCOCC1)Cc1cc2cc3c(cc2[nH]c1=O)OCO3 , thanks.
Output: 4.75

Task: Value lookup for pIC50; key = COc1cc2c(cc1OC)CN(C(=O)CSc1nnc3scc(-c4ccccc4)n13)CC2
Output: 3.23

Task: Please report the recorded pIC50 for Cc1ccc(C2C3CN(C(C)C)CCC3=C(C#N)C(=N)C2(C#N)C#N)cc1 (centres undefined) .
Output: 4.40

Task: # get_value(readout='pIC50', item= c1ccc2c(c1)nnn2Cc1nnc2sc(-c3ccc4c(c3)OCCO4)nn12 )
Output: 4.08

Task: // returns reported pIC50 for input COc1ccc2c(c1)-c1ccccc1S(=O)(=O)N2C(C)=O
Output: 4.10

Task: For COCCN(Cc1cc2cc3c(cc2[nH]c1=O)OCO3)C(=O)c1cccs1 , what is its reported pIC50?
Output: 4.42

Task: Find the recorded pIC50 belonging to Cc1ccc2cc3c(NC(=O)c4ccco4)nn(C)c3nc2c1 and report it.
Output: 4.34

Task: Recorded pIC50 of O=C(c1cc2nc(-c3ccc(F)cc3)cc(C(F)(F)F)n2n1)N1CCCC1 , please.
Output: 4.28

###

# SYSTEM: Diphosphomevalonate decarboxylase (Streptococcus pneumoniae serotype 2 (strain D39 / NCTC 7466))
# ASSAY PROTOCOL: diphosphomevalonate decarboxylase inhibition dose curves – biochemical, PK/LDH-coupled NADH fluorescence, hexokinase coupling counter-screen, dose response (AID 550)
Please go through the items and note down their pIC50.
Scale: pIC50 equals -log10([C]), with [C] in mol/L.

Task: Which pIC50 value is on record for COc1ccc(-c2nnc(Nc3nc4c(OC)cccc4s3)o2)c(OC)c1 ?
Output: 5.18

Task: Would you kindly share the measured pIC50 for COc1ccc(-c2cc(C(=O)OCC(=O)N(C)C)c3ccccc3n2)cc1 ?
Output: 4.39

Task: For COCCCn1c(=S)[nH]c2ccc(N3CCOCC3)cc2c1=O , what is its reported pIC50?
Output: 4.57

Task: Query: pIC50; subject: COc1cc(CNc2ccc(N3CCOCC3)c(C(=O)O)c2)ccc1OCC(N)=O
Output: 4.18

Task: Which measured pIC50 value corresponds to Cc1cccc(Nc2nnc(S)s2)c1C ?
Output: 3.73

###

# SYSTEM: Diphosphomevalonate decarboxylase (Streptococcus pneumoniae serotype 2 (strain D39 / NCTC 7466))
# Sequence (A0A0H2ZN59 whole entry): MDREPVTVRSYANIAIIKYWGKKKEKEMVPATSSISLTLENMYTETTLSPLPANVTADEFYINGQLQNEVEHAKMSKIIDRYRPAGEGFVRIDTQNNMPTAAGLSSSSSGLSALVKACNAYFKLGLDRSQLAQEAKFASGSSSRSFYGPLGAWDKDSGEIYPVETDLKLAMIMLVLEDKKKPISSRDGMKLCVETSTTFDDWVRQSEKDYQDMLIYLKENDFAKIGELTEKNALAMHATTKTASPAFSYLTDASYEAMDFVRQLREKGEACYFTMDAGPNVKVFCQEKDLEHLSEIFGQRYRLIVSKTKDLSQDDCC
# ASSAY PROTOCOL: diphosphomevalonate decarboxylase inhibition dose curves – biochemical, PK/LDH-coupled NADH fluorescence, hexokinase coupling counter-screen, dose response (AID 550)
ENDPOINT NAME: IC50

Task: Look at this compound and give its reported IC50. CCCN1C(=O)C(NC(C)=O)c2cc(OC)ccc21 (stereo not given) [MLS000080624]
Output: > 10000 µM

Task: Look up IC50 for this compound: COC(=O)c1ccccc1NC(=O)c1ccc2c(c1)C(=O)N(Cc1ccco1)C2=O
Output: 53.9 µM

Task: Which IC50 is reported for this compound? Nc1c(C(=O)NC2CCCC2)sc2nc(-c3cccs3)ccc12
Output: 172 µM

Task: Param item = Cc1cc(N2CCOCC2)c2c(N)c(Br)cc(C)c2n1 ; retrieve measured IC50.
Output: > 10000 µM

Task: What value of IC50 has been reported for the following compound? COc1cc(-c2nc3cnccc3n2C)cc(OC)c1OC
Output: > 10000 µM

###

# SYSTEM: Diphosphomevalonate decarboxylase (Streptococcus pneumoniae serotype 2 (strain D39 / NCTC 7466))
# ASSAY PROTOCOL: diphosphomevalonate decarboxylase inhibition dose curves – biochemical, PK/LDH-coupled NADH fluorescence, hexokinase coupling counter-screen, dose response (AID 550)
Answer each item with its documented pIC50.
Kindly note that pIC50 refers to -log10 of the concentration in mol/L and answer with the value alone.

Task: Could you tell me which pIC50 is on file for Cc1cc(-c2ccccc2)nc(N2CCC(C(=O)NC(C)C)CC2)n1 ?
Output: 4.16

Task: So what does the record say about pIC50 for O=c1c2cc(N3CCOCC3)ccc2[nH]c(=S)n1CCCN1CCN(c2ccccc2F)CC1 ?
Output: 4.23

Task: Name the recorded pIC50 for COc1ccc(-c2coc3cc(O)ccc3c2=O)cc1OC .
Output: 4.72

Task: Endpoint output: pIC50 of O=c1c2ccccc2sn1-c1cc(S(=O)(=O)N2CCOCC2)ccc1N1CCOCC1 . Value?
Output: 4.81

Task: Suppose we examine the molecule COC(=O)c1ccc(Nc2cc(C)nc(-c3ccccc3O)n2)cc1 ; what pIC50 value has been reported?
Output: 4.73

Task: Could you tell me which pIC50 is on file for COc1ccccc1-c1nnc2sc(-c3ccc(N(C)C)cc3)nn12 ?
Output: 4.79

###

So I've got a bunch of compounds here, and I need their pIC50 values.
# SYSTEM: Diphosphomevalonate decarboxylase (Streptococcus pneumoniae serotype 2 (strain D39 / NCTC 7466), UniProt A0A0H2ZN59)
# ASSAY PROTOCOL: diphosphomevalonate decarboxylase inhibition dose curves – biochemical, PK/LDH-coupled NADH fluorescence, hexokinase coupling counter-screen, dose response (AID 550)
Conceptually, pIC50 converts a concentration in mol/L into minus its log10.

Task: State the recorded pIC50 for this entry: CCN(CC)CCCN(Cc1cc2cc3c(cc2[nH]c1=O)OCO3)C(=O)Nc1ccccc1OC
Output: 4.47

Task: Which pIC50 is reported for this compound? CC(C)(C)n1nnnc1C(c1cc2cc3c(cc2[nH]c1=O)OCO3)N1CCN(c2ccccc2)CC1 (centres undefined)
Output: 4.24

Task: # query: pIC50 of entry CN(C)[C@@H]1C(=O)C(C(N)=O)C(=O)[C@@]2(O)C(=O)C3C(=O)c4c(O)cccc4[C@@](C)(O)[C@H]3[C@H](O)[C@@H]12 (some centres undefined)
Output: 4.43

Task: I would be grateful if you could share the reported pIC50 for CC(C)c1ccc(-c2nc3c([nH]2)c(=O)n(C)c(=O)n3C)cc1 .
Output: 4.66

Task: Recorded pIC50 for Cc1cc(C)c2c(=O)n(CC(=O)N3CCC(Cc4ccccc4)CC3)sc2n1 , please?
Output: 3.66

###

# SYSTEM: Diphosphomevalonate decarboxylase (Streptococcus pneumoniae serotype 2 (strain D39 / NCTC 7466), UniProt A0A0H2ZN59)
# ASSAY PROTOCOL: diphosphomevalonate decarboxylase inhibition dose curves – biochemical, PK/LDH-coupled NADH fluorescence, hexokinase coupling counter-screen, dose response (AID 550)
Provide the reported IC50 of each item.

Task: GET /values?readout=IC50&item= COc1ccc(-c2c3c(nc4sc(C(=O)Nc5cc(C)on5)c(N)c24)CCC3)cc1
Output: 0.00833 mM

Task: Return reported IC50; argument: CC(NC(=O)c1cccc(N2CCCC2=O)c1)c1ccc2c(c1)OCCO2 (stereo unspecified)
Output: > 10 mM

Task: Which IC50 reading was recorded for the molecule COc1ccc(C2CC(c3cccc(C)c3)n3nc(N)nc3N2)cc1 (stereo unspecified) ?
Output: > 10 mM

Task: Entry COCCNC(=O)c1cnn2c(C(F)(F)F)cc(-c3ccc4c(c3)OCO4)nc12 : reported IC50 = ?
Output: > 10 mM

Task: Can you look up the measured IC50 of Cc1occc1C(=O)Nc1nnc(C(F)(F)F)s1 for me?
Output: > 10 mM

Task: What value of IC50 has been recorded for this entry: CCOC(=O)c1c(Nc2nc(C)c(C(=O)NC)s2)sc(C)c1C
Output: > 10 mM

Task: Find the recorded IC50 belonging to Cn1c(SCC(=O)N2CCOCC2)nnc1-c1ccc(NC(=O)c2ccccc2F)cc1 and report it.
Output: > 10 mM

Task: What does the data say about its IC50? Entry: CCC(=O)Nc1cccc(NC(=O)CSc2nnnn2Cc2ccccc2)c1
Output: > 10 mM

Task: Reported IC50, molecule CCCn1c(C)nc2c(c1=O)c1nc3ccccc3nc1n2-c1ccc2c(c1)OCCO2 : ____
Output: > 10 mM

Task: Please look up its IC50: CCOC(=O)C(Cc1ccccc1)C(=O)Nc1nccs1 (stereo unspecified)
Output: > 10 mM

Task: Any idea what IC50 was measured for CCn1c2c(c3cc(C(=O)O)ccc31)CCCC2=O ?
Output: 0.0785 mM

Task: Sample CC1CC(C)CN(CCCNC(=O)Cn2ncc3c(=O)oc4ccccc4c32)C1 (stereo unspecified) — what was its IC50?
Output: > 10 mM

Task: # query: IC50 of entry Cc1c(NC(=O)CN2c3cccc4cccc(c34)S2(=O)=O)c(=O)n(-c2ccccc2)n1C
Output: 0.0342 mM

Task: Request the reported IC50 associated with COc1ccc(-c2nc(C(N)=O)c3[nH]c(=O)n(-c4cccc(C)c4)c3n2)c(OC)c1
Output: 0.128 mM

Task: Given O=C1C(Cl)=C(NCC2CCCO2)C(=O)N1Cc1ccccc1 (stereo unspecified) , state its recorded IC50.
Output: > 10 mM

Task: State the recorded IC50 for this entry: Oc1nc(-c2ccncc2)nc2ccccc12
Output: > 10 mM

Task: Bench note: what IC50 did O=P1(NC2CCCC2)COc2ccccc2OC1 show?
Output: > 10 mM

Task: I am curious: what IC50 value has been reported for COc1ccccc1CNc1ncnc2nc[nH]c12 ?
Output: > 10 mM

Task: Which IC50 reading was recorded for the molecule O=c1c2cc(N3CCOCC3)ccc2[nH]c(=S)n1Cc1ccccn1 ?
Output: 0.0361 mM

Task: Requested read-out: IC50. Entry: CCc1cc(C(Cc2ccc3ccccc3n2)N=O)c(O)cc1O (stereo unspecified)
Output: > 10 mM

Task: Need IC50 of CCCOC(=O)Cc1n[nH]c(=O)[nH]c1=O , thanks.
Output: > 10 mM
